assaySystem: T1, human EphA2 ectodomain (human, UniProt P29317 24-537)
T1 construct: Soluble ectodomain used as the SPR analyte
T1 sequence (P29317 24-537 limits assumed): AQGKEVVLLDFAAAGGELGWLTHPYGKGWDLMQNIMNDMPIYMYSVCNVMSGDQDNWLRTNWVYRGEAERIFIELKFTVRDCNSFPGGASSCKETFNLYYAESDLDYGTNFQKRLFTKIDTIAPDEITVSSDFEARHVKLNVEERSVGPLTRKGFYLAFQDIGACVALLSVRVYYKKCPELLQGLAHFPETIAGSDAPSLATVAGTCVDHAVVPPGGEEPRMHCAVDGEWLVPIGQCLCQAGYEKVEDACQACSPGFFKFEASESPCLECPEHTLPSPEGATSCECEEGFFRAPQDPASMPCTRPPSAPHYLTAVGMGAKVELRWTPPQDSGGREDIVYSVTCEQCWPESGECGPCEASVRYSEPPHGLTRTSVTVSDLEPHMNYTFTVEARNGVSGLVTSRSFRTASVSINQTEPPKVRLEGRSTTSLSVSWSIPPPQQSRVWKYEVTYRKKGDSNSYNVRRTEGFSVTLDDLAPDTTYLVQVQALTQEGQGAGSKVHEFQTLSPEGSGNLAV
testSummary: SPR (Biacore 8k), Fab-capture, 37C, 1:1 model;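 also: Anti-EphA2 IgG captured via immobilized anti-Fab, soluble EphA2 ectodomain as analyte at six twofold dilutions from 50 nM, HBS-EP+ pH 7.6 running buffer, double reference subtraction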
Listed below: kon values for each entry.
// units = M⁻¹ s⁻¹; emit number, no label

Worked cases, kon given:
anti-EphA2 E152C S375C 1C1 (LC S93Q) hIgG1 (WT Heavy Chain) (antibody, V domains shown, also called DA-62-QP06) VH: EVQLLESGGGLVQPGGSLRLSCAASGFTFSHYMMAWVRQAPGKGLEWVSRIGPSGGPTHYADSVKGRFTISRDNSKNTLYLQMNSLRAEDTAVYYCAGYDSGYDYVAVAGPAEYFQHWGQGTLVTVSS VL: DIQMTQSPSSLSASVGDRVTITCRASQSISTWLAWYQQKPGKAPKLLIYKASNLHTGVPSRFSGSGSGTEFSLTISGLQPDDFATYYCQQYNQYSRTFGQGTKVEIKR :: 268000
anti-EphA2 E152C S375C 1C1 (LC S10T_S72T_G77S) hIgG1 (WT Heavy Chain) (antibody, V domains shown, also called 3x germ) VH: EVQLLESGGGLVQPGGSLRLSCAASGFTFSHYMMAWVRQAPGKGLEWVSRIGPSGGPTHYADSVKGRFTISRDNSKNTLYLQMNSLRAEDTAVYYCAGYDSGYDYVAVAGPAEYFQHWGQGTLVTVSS VL: DIQMTQSPSTLSASVGDRVTITCRASQSISTWLAWYQQKPGKAPKLLIYKASNLHTGVPSRFSGSGSGTEFTLTISSLQPDDFATYYCQQYNSYSRTFGQGTKVEIKR :: 250000

// query What value of kon has been reported for the following binder? anti-EphA2 E152C S375C 1C1 (LC S93A) hIgG1 (WT Heavy Chain) (antibody, V domains shown, also called HD-58-MP05) VH: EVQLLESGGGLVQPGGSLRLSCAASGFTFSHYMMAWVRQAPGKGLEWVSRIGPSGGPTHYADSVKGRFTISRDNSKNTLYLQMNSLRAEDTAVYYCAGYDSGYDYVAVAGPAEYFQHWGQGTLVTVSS VL: DIQMTQSPSSLSASVGDRVTITCRASQSISTWLAWYQQKPGKAPKLLIYKASNLHTGVPSRFSGSGSGTEFSLTISGLQPDDFATYYCQQYNAYSRTFGQGTKVEIKR
// result 493000
